Could you please report measured %Inh for the items listed next?
system: NEK7; details: concentration: 1 μM, replicates: in singlicate; n = 1;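 further: KINOMEscan kinase panel screen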
Please don't drop the unit; write it after the number.

>>> result("C[C@@H](Oc1cc(-n2cnc3cc(-c4ccnc(NCCS(C)(=O)=O)c4)ccc32)sc1C(N)=O)c1ccccc1Cl")
"12%"
>>> result("CCc1ccc(-c2ccc3c(c2)-c2c(cnn2C)S(=O)(=O)N3C)cc1")
"0%"
>>> result("Cn1cc(-c2[nH]c3cc(NC(=O)[C@H](N)C4CCCCC4)cc4c3c2C=NNC4=O)cn1")
"0%"
>>> result("Cn1cc(-c2ccc3c(c2)CCN3C(=O)Cc2cccc(Cl)c2)c2c(N)ncnc21")
"0%"

Answer for every listed entry: what is its %Inh? The entries follow.
1. Cc1ccc(C(=O)N2CC[C@@H](O)C2)cc1-n1c(C)cc(OCc2ccc(F)cc2F)c(Br)c1=O
2. CCCCc1nn2ncccc2c1-c1ccnc(Nc2ccc(N3CCN(C)CC3)cc2)n1
3. COC(=O)Nc1nc2ccc(Oc3ccc(NC(=O)Nc4cc(C(F)(F)F)ccc4F)cc3)cc2n1C.Cl
4. Cc1occc1-c1ncc(OC[C@@H](N)Cc2c[nH]c3ccccc23)cc1-c1ccc2[nH]nc(C)c2c1.O=C(O)C(F)(F)F
5. COc1cc(Nc2nccc(N3CCC(NC(=O)Nc4cccc(C(C)=O)c4)C3)n2)cc(OC)c1OC (stereo not shown)

Completion:
0%
0%
0%
0%
45%

Answer for every listed entry: what is its %Inh? The entries follow.
1. O=C(Nc1ccccc1F)NC1CCN(c2ccnc(Nc3ccc(F)cc3)n2)CC1
2. Cl.c1ccc(-c2ccc3c(Nc4ccc5[nH]ncc5c4)ccnc3c2)nc1
3. C[C@@H]1CC[C@@H](C(=O)Nc2ccccc2)CN1c1cc(-c2ccc3c(N)n[nH]c3c2)nc(N)n1

Completion:
1. 0%
2. 0%
3. 0%

Answer for every listed entry: what is its %Inh? The entries follow.
1. Cc1ccc(S(=O)(=O)Nc2ccc(Nc3nccc(Nc4cccc5[nH]ncc45)n3)cc2)cc1
2. O=C(Nc1n[nH]c2cc(-c3ccoc3)ccc12)C1CC1
3. CN1CCN(CCCNc2nccc(-c3c(-c4ccc(F)cc4)nn4cc(C(F)(F)F)ccc34)n2)CC1
4. COc1cc(Nc2nccc(-c3c(-c4cccc(NC(=O)c5c(F)cccc5F)c4)nn4ccccc34)n2)cc(OC)c1OC
5. c1ccc(-c2n[nH]cc2Nc2ccnc3ccccc23)nc1
6. Nc1n[nH]c2cnc(-c3ccccc3)cc12
7. c1ccc(-c2cnc3nccnn23)cc1

Completion:
1: 0%; 2: 16%; 3: 11%; 4: 33%; 5: 0%; 6: 0%; 7: 0%

Answer for every listed entry: what is its %Inh? The entries follow.
1. Cl.Cl.NCC(NC(=O)c1cc(-c2ccccc2)c(-c2ccnc3[nH]ccc23)s1)c1ccccc1 (stereo not shown)
2. NCCCC(NC(=O)c1cc(Br)c(-c2ccnc3[nH]ccc23)s1)c1ccccc1.O=C(O)C(F)(F)F.O=C(O)C(F)(F)F (stereo not shown)
3. Nc1ncc(-c2cccnc2)c2scc(-c3ccc4c(c3)CCN4C(=O)Cc3ccccc3)c12
4. CC(C)(C)c1ccc2nccc(Nc3cccc(O)c3)c2c1

Completion:
1: 0%; 2: 0%; 3: 19%; 4: 0%

Answer for every listed entry: what is its %Inh? The entries follow.
1. O=C(Nc1cccc(Oc2ccc3nc(NC(=O)C4CC4)cn3n2)c1)c1ccccc1C(F)(F)F
2. COc1ccc(Nc2nccc(N3CCC(NC(=O)Nc4cccc(OC)c4)C3)n2)cc1 (stereo not shown)
3. COc1cc(Nc2nccc(-c3c(-c4cccc(NC(=O)c5c(F)cccc5F)c4)nn4ncccc34)n2)cc(OC)c1OC
4. COCCOCCOc1cc2ncc3c4ccc(C#N)cc4[nH]c3c2cc1OC
5. CNC(=O)c1ccccc1Nc1nc(Nc2ccc(N3CCOCC3)cc2)ncc1Cl.Cl
6. O=c1[nH]cc(-c2ccc(N3CCOCC3)cc2)c2sc(-c3cn[nH]c3)cc12
7. Cc1cccc(NC(=O)Nc2ccc(Oc3ncnc4ccn(C)c34)cc2)c1

Completion:
1. 0%
2. 0%
3. 18%
4. 15%
5. 98%
6. 39%
7. 0%

Answer for every listed entry: what is its %Inh? The entries follow.
1. Cl.Cl.NCC(NCc1ccc(-c2ccnc3[nH]ccc23)s1)c1ccccc1 (stereo not shown)
2. COc1cccc(-c2ccc3c(NC(=O)C4CC4)n[nH]c3n2)c1
3. Cn1cc(-c2ccc3c(c2)CCN3C(=O)Cc2cccc(F)c2)c2c(N)ncnc21
4. COc1ccc(Nc2nccc(NCCNC(=O)c3cc4ccccc4s3)n2)cc1

Completion:
["0%", "0%", "0%", "0%"]

* * *

tested on: KIT; conditions: concentration: 1 μM, replicates: in singlicate; n = 1
Property label: %Inh (%)
Numbers only, in %.

Sample records with %Inh:
>>> numeric_readout("Nc1ncc(-c2cccnc2)c2scc(-c3ccc4c(c3)CCN4C(=O)Cc3ccccc3)c12")
98.5
>>> numeric_readout("Cc1ccc(C(=O)Nc2ccc(Nc3ccnc4cc(-c5nccs5)ccc34)cc2O)cc1.Cl")
73
>>> numeric_readout("Cn1cc(-c2ccc3c(c2)CCN3C(=O)Cc2cccc(Cl)c2)c2c(N)ncnc21")
100
>>> numeric_readout("Cl.Cl.NCC(C(=O)Nc1cc(Br)c(-c2ccnc3[nH]ccc23)s1)c1ccccc1 (centres unmarked)")
12
>>> numeric_readout("O=C(Nc1ccccc1F)NC1CCN(c2ccnc(Nc3ccc(F)cc3)n2)CC1")
7

Answer for every listed entry: what is its %Inh? The entries follow.
1. Cc1ccc(C(=O)N2CC[C@@H](O)C2)cc1-n1c(C)cc(OCc2ccc(F)cc2F)c(Br)c1=O
2. Oc1cc(Nc2ccnc3cc(I)ccc23)ccc1F
3. COc1ccc(Nc2nccc(N3CCC(NC(=O)Nc4cccc(OC)c4)C3)n2)cc1 (centres unmarked)
4. Cc1cccc(Nc2nc(N[C@H]3CCNC3)ncc2C(N)=O)c1.Cl
5. CN(C)S(=O)(=O)c1cc(-c2ccc3nccc(-c4cccc(S(N)(=O)=O)c4)c3c2)cnc1N
6. Fc1ccc(-c2ncn(C3CCNCC3)c2-c2ccnc(Oc3ccc(-c4ccccc4)cc3)n2)cc1
7. Cc1ccc(S(=O)(=O)Nc2ccc(Nc3nccc(Nc4cccc5[nH]ncc45)n3)cc2)cc1
8. CN(C)Cc1ccc(-c2ccc3c(Nc4ccc(Oc5ccccn5)cc4)ccnc3c2)o1

Completion:
[87, 70, 49, 94.9, 21, 17, 85, 92.8]

* * *

test system: SRMS; conditions: concentration: 1 μM, replicates: in singlicate; n = 1
Could you please report measured %Inh for the items listed next?
One number for each entry, in %.

Sample records with %Inh:
>>> numeric_readout("Cl.Cl.NCC(C(=O)Nc1cc(Br)c(-c2ccnc3[nH]ccc23)s1)c1ccccc1 (stereo not shown)")
0
>>> numeric_readout("CC(=O)Nc1nc2cnc(Nc3cc(NC(=O)c4cccc(C5(C#N)CC5)c4Cl)ccc3C)nc2s1")
0

Answer for every listed entry: what is its %Inh? The entries follow.
1. Nc1n[nH]c2cnc(-c3ccccc3)cc12
2. Cl.Cl.NCC(NCc1ccc(-c2ccnc3[nH]ccc23)s1)c1ccccc1 (stereo not shown)
3. Cc1ccc(C(=O)N2CC[C@@H](O)C2)cc1-n1c(C)cc(OCc2ccc(F)cc2F)c(Br)c1=O
4. CC(C)c1nc(-c2cccc(NS(=O)(=O)c3c(F)cccc3F)c2F)c(-c2ccnc(Nc3ccc(N4CCOCC4)nc3)n2)s1

Completion:
0
0
0
99.5

* * *

tested on: PIM2; conditions: concentration: 1 μM, replicates: in singlicate; n = 1
Could you please report measured %Inh for the items listed next?
One number for each entry, in %.

>>> numeric_readout("CSc1cccc2c(-c3ccncn3)c(-c3ccc(F)cc3)nn12")
0

Answer for every listed entry: what is its %Inh? The entries follow.
1. c1ccc(-c2n[nH]cc2Nc2ccnc3ccccc23)nc1
2. CNC(=O)c1ccccc1Nc1nc(Nc2ccc(N3CCOCC3)cc2)ncc1Cl.Cl
3. CC(C)(C)c1ccc2nccc(Nc3cccc(O)c3)c2c1
4. COc1cc(Nc2nccc(-c3c(-c4cccc(NC(=O)c5c(F)cccc5F)c4)nn4ccccc34)n2)cc(OC)c1OC
5. Clc1ccc(-c2nn3ncccc3c2-c2ccnc(Nc3ccc4c(c3)OCCO4)n2)cc1
6. COC(=O)Nc1nc2ccc(Oc3ccc(NC(=O)Nc4cc(C(F)(F)F)ccc4F)cc3)cc2n1C.Cl
7. COc1ccc(-c2coc3ccc(-c4nnc(SCc5ccc(OC)c(C(F)(F)F)c5)o4)cc23)cc1
8. O=C(Nc1cccc(-c2nn3ncccc3c2-c2ccnc(Nc3ccccc3)n2)c1)c1c(F)cccc1F

Completion:
1: 7; 2: 0; 3: 0; 4: 0; 5: 6; 6: 24; 7: 18; 8: 0

* * *

Could you please report measured %Inh for the items listed next?
tested on: FGR; conditions: concentration: 1 μM, replicates: in singlicate; n = 1
Please don't drop the unit; write it after the number.

Sample records with %Inh:
>>> result("COC(=O)Nc1nc2cc(Oc3ccc(NC(=O)Nc4cc(C(F)(F)F)ccc4F)cn3)ccc2[nH]1.Cl.Cl [GW681170]")
"15%"
>>> result("Cc1ccc(C(=O)N2CC[C@@H](O)C2)cc1-n1c(C)cc(OCc2ccc(F)cc2F)c(Br)c1=O")
"0%"
>>> result("Nc1ncnc2c1nc(-c1ccccc1)n2-c1ccccc1 [SKF-97293]")
"31%"
>>> result("CN(c1ccc(NC(=O)Nc2cc(C(F)(F)F)ccc2F)cc1)c1ccnc(Nc2ccc(S(N)(=O)=O)cc2)n1 [GW809893]")
"94.7%"

Answer for every listed entry: what is its %Inh? The entries follow.
1. Fc1ccc(-c2ncn(C3CCNCC3)c2-c2ccnc(Oc3ccc(-c4ccccc4)cc3)n2)cc1 [SB-245391]
2. COCCOCCOc1cc2ncc3c4ccc(C#N)cc4[nH]c3c2cc1OC
3. COc1cc2c(cc1OCCN1CCNCC1)ncc1c3ccc(C#N)cc3[nH]c21
4. CCc1ccc(-c2ccc3c(c2)-c2c(cnn2C)S(=O)(=O)N3C)cc1
5. CC(=O)N1CCN(c2ccc(Nc3nccc(-c4sc(C(C)C)nc4-c4cccc(NS(=O)(=O)c5cccc(Cl)c5)c4)n3)cn2)CC1 [GSK1660437]
6. O=C(Nc1cccc(-c2nn3ccccc3c2-c2ccnc(Nc3cccc(C(F)(F)F)c3)n2)c1)c1c(F)cccc1F [GSK292658]
7. O=C(Nc1cccc(-c2nn3ccccc3c2-c2ccnc(Nc3cccc(F)c3)n2)c1)c1c(F)ccc(F)c1Cl [GSK357952]

Completion:
1: 17%; 2: 30%; 3: 2%; 4: 0%; 5: 78%; 6: 92.5%; 7: 97.1%
